system: human glioma cell U87; experiment: Tumor volume inhibition rate, i.v. dosing; format: in vivo, Balb/c nude mice; conditions: Mus musculus, iv, 240 h, Day 10, 20 mg·kg^−1, i.v., TMZ 10 mg·kg^−1, i.v.
Assign class 1 whenever inhibition in vivo at 20 mg/kg does not fall below 70%; assign class 0 whenever it does.

• Cn1nnc2c(C(=O)NCCn3[se]c4ccc(F)cc4c3=O)ncn2c1=O = class 1
• Cn1nnc2c(C(=O)NCCn3[se]c4ccccc4c3=O)ncn2c1=O = class 1
• Cn1nnc2c(C(N)=O)ncn2c1=O [TMZ, temozolomide, reference compound] = class 0
• Cc1ccc2[se]n(CCNC(=O)c3ncn4c(=O)n(C)nnc34)c(=O)c2c1 = class 1
• COc1ccc2[se]n(CCNC(=O)c3ncn4c(=O)n(C)nnc34)c(=O)c2c1 = class 0
• Cn1nnc2c(C(=O)NCCn3[se]c4cc(F)ccc4c3=O)ncn2c1=O = class 0
• Cn1nnc2c(C(=O)NCCn3[se]c4ccc(Br)cc4c3=O)ncn2c1=O = class 0
• Cc1ccc2c(=O)n(CCNC(=O)c3ncn4c(=O)n(C)nnc34)[se]c2c1 = class 1
• Cn1nnc2c(C(=O)NCCn3[se]c4ccc(Cl)cc4c3=O)ncn2c1=O = class 1

###

tested on: human pancreatic carcinoma cells (Panc1); test: In-vitro growth inhibition, MTT method, Panc1; type: cell-based; settings: PANC-1, 48 h
pIC50: −log10 of the molar value.
Param threshold (5) applies to pIC50; output condition met when value >= threshold, condition not met when value < threshold.

• Cc1ccc2[se]n(CCNC(=O)c3ncn4c(=O)n(C)nnc34)c(=O)c2c1 = condition not met
• Cn1nnc2c(C(=O)NCCn3[se]c4ccc(Br)cc4c3=O)ncn2c1=O = condition met
• Cn1nnc2c(C(=O)NCCn3[se]c4ccccc4c3=O)ncn2c1=O = condition not met
• Cn1nnc2c(C(=O)NCCn3[se]c4cc(F)ccc4c3=O)ncn2c1=O = condition met
• Cn1nnc2c(C(=O)NCCn3[se]c4ccc(Cl)cc4c3=O)ncn2c1=O = condition not met
• COc1ccc2[se]n(CCNC(=O)c3ncn4c(=O)n(C)nnc34)c(=O)c2c1 = condition not met
• Cn1nnc2c(C(=O)NCCn3[se]c4ccc(F)cc4c3=O)ncn2c1=O = condition not met

###

system: human glioma cell U87; assay: Tumor volume inhibition rate, i.v. dosing; format: in vivo, Balb/c nude mice; settings: Mus musculus, iv, 312 h, Day 13, 20 mg·kg^−1, i.v., TMZ 10 mg·kg^−1, i.v.
Catalogue of inhibition in vivo at 20 mg/kg values
assay_readout: inhibition in vivo at 20 mg/kg (%)

• Cc1ccc2[se]n(CCNC(=O)c3ncn4c(=O)n(C)nnc34)c(=O)c2c1 [Compound 6] = 88.5
• Cn1nnc2c(C(=O)NCCn3[se]c4cc(F)ccc4c3=O)ncn2c1=O [Compound 3] = 58.8
• Cn1nnc2c(C(=O)NCCn3[se]c4ccc(Cl)cc4c3=O)ncn2c1=O [Compound 4] = 68.8
• Cn1nnc2c(C(N)=O)ncn2c1=O [TMZ, temozolomide, reference compound] = 38.1
• Cn1nnc2c(C(=O)NCCn3[se]c4ccc(F)cc4c3=O)ncn2c1=O [Compound 2] = 85.8
• COc1ccc2[se]n(CCNC(=O)c3ncn4c(=O)n(C)nnc34)c(=O)c2c1 [Compound 7] = 48
• Cn1nnc2c(C(=O)NCCn3[se]c4ccc(Br)cc4c3=O)ncn2c1=O [Compound 5] = 36.8
• Cn1nnc2c(C(=O)NCCn3[se]c4ccccc4c3=O)ncn2c1=O [Compound 1] = 79.8
• Cc1ccc2c(=O)n(CCNC(=O)c3ncn4c(=O)n(C)nnc34)[se]c2c1 [Compound 8] = 88.2
